Reported % Inhibition (BSA degradation, proteinase enzyme assay) values for the following binders.
# target entity: native, highly purified SAP2 preparation (Candida albicans, UniProt P0CS83 57-398)
# Sequence (P0CS83 57-398 limits assumed): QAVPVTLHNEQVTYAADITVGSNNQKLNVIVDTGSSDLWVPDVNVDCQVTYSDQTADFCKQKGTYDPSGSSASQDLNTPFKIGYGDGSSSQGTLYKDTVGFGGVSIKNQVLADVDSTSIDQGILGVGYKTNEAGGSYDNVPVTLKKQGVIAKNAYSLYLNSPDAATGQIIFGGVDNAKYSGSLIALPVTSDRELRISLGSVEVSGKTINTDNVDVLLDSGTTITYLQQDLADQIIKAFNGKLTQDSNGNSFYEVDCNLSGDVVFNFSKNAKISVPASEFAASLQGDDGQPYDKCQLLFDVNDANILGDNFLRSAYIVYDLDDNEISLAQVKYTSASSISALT
# run description: cell-based or functional assay

ADR4-3 (other) EVQLLESGGGLVQPGGSLRLSCAASGFTFAQYRMAWVRQAPGKGLEWVSQINAQGTQTGYADSVKGRFTISRDNSKNTLYLQMNSLRAEDTAVYYCAKWVGGARYTFDYWGQGTLVTVSS : 40%

Summary for this binder, ADR4-8 (other) EVQLLESGGGLVQPGGSLRLSCAASGFSLSYKVMGWVRQAPGKGLEWVSAINRENGSTYYADSVKGRFTISRDNSKNTLYLQMNSLRAEDTAVYYCAGFARRGAPHSASVEFWGQGTLVTVSS : % Inhibition (BSA degradation, proteinase enzyme assay) is 0%
